B1: peptide F4ac 200–218 [modified: FITC-Ahx on the N-terminus; FITC-Ahx on the N-terminus] [Escherichia coli] / porcine aminopeptidase N (APN), His-tagged whole protein [porcine] (parent complex)
chain 1: TKLFGSLSRNDILGQIQRV
chain 2: MAKGFYISKALGILGILLGVAAVATIIALSVVYAQEKNKNAEHVPQAPTSPTITTTAAITLDQSKPWNRYRLPTTLLPDSYNVTLRPYLTPNADGLYIFKGKSIVRLLCQEPTDVIIIHSKKLNYTTQGHMVVLRGVGDSQVPEIDRTELVELTEYLVVHLKGSLQPGHMYEMESEFQGELADDLAGFYRSEYMEGNVKKVLATTQMQSTDARKSFPCFDEPAMKATFNITLIHPNNLTALSNMPPKGSSTPLAEDPNWSVTEFETTPVMSTYLLAYIVSEFQSVNETAQNGVLIRIWARPNAIAEGHGMYALNVTGPILNFFANHYNTSYPLPKSDQIALPDFNAGAMENWGLVTYRENALLFDPQSSSISNKERVVTVIAHELAHQWFGNLVTLAWWNDLWLNEGFASYVEYLGADHAEPTWNLKDLIVPGDVYRVMAVDALASSHPLTTPAEEVNTPAQISEMFDSISYSKGASVIRMLSNFLTEDLFKEGLASYLHAFAYQNTTYLDLWEHLQKAVDAQTSIRLPDTVRAIMDRWTLQMGFPVITVDTKTGNISQKHFLLDSESNVTRSSAFDYLWIVPISSIKNGVMQDHYWLRDVSQAQNDLFKTASDDWVLLNVNVTGYFQVNYDEDNWRMIQHQLQTNLSVIPVINRAQVIYDSFNLATAHMVPVTLALDNTLFLNGEKEYMPWQAALSSLSYFSLMFDRSEVYGPMKKYLRKQVEPLFQHFETLTKNWTERPENLMDQYSEINAISTACSNGLPQCENLAKTLFDQWMSDPENNPIHPNLRSTIYCNAIAQGGQDQWDFAWGQLQQAQLVNEADKLRSALACSNEVWLLNRYLGYTLNPDLIRKQDATSTINSIASNVIGQPLAWDFVQSNWKKLFQDYGGGSFSFSNLIQGVTRRFSSEFELQQLEQFKKNNMDVGFGSGTRALEQALEKTKANIKWVKENKEVVLNWFIEHS

# Variants of: B1
# protocolNotes: ELISA; parent: 29; read off a plot
endpoint: response

Reference set, count: 5
{"mutantLabel": "chain 1 K2A", "endpoint": "response", "reportedValue": "~48 relative value APN/PBS at 450 nm"}
{"mutantLabel": "chain 1 G14A", "endpoint": "response", "reportedValue": "~6.5 relative value APN/PBS at 450 nm"}
{"mutantLabel": "chain 1 G5A", "endpoint": "response", "reportedValue": "~20 relative value APN/PBS at 450 nm"}
{"mutantLabel": "chain 1 L13A", "endpoint": "response", "reportedValue": "~13 relative value APN/PBS at 450 nm"}
{"mutantLabel": "chain 1 N10A", "endpoint": "response", "reportedValue": "~15 relative value APN/PBS at 450 nm"}

State, in one line, measured response of chain 1 S8A
~27 relative value APN/PBS at 450 nm

State, in one line, measured response of chain 1 L3A
~73 relative value APN/PBS at 450 nm

State, in one line, measured response of chain 1 R18A
~6.5 relative value APN/PBS at 450 nm

State, in one line, measured response of chain 1 L7A
~6.5 relative value APN/PBS at 450 nm
